- Tested on: PDGFRB
- measurement parameters: concentration: 1 μM, replicates: in singlicate; n = 1;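 note: KINOMEscan kinase panel screen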
parameter measured: %Inh (%)
Write it as a number; the unit % goes unstated.

Asked: Output measured %Inh for this item: Cc1cccc(-c2nc(Nc3ccncc3)c3ccccc3n2)n1 [GW855857]
Given back: 3

Asked: Complete the entry with %Inh for Nc1ncnc2[nH]c(-c3ccccc3)nc12 [AH5015]
Given back: 42

Asked: Retrieve %Inh measured for Cc1c(Cn2ccn3c(=O)cc(N4CCOCC4)nc23)cccc1C(F)(F)F [GSK2289044] and print it.
Given back: 21

Asked: Given the compound COc1ccc(C2=C(Nc3cccc(C(=O)O)c3)C(=O)NC2=O)cc1 [SB-390765] , write its reported %Inh.
Given back: 0

Asked: Determine from records and report %Inh for COc1cc2ncn(-c3cc(OCC4CCCO4)c(C(N)=O)s3)c2cc1OC (stereo not shown) [GSK204607]
Given back: 32

Asked: Give the reported value of %Inh for this record: COc1ccc(Nc2nccc(NCCNC(=O)Nc3ccccc3F)n2)cc1 [GSK1379901]
Given back: 70

Asked: Give the reported value of %Inh for this record: Cc1cccc(-c2nc(C)cc(Nc3ccncc3)n2)n1 [GSK257997]
Given back: 11

Asked: Answer with the recorded %Inh for the compound listed here: Cc1ccc(-c2cc(-c3c[nH]nc3-c3ccccn3)ccn2)cc1 [GW684088]
Given back: 22

Asked: Annotate the compound COc1cc(Nc2nccc(N3CCC(NC(=O)Nc4cc(C)ccc4C)C3)n2)cc(OC)c1OC (stereo not shown) [GSK1379762] with its measured %Inh.
Given back: 42

Asked: Give the value of %Inh reported for the following: Cc1cc(N2Cc3ccccc3C2)nc(Nc2ccc(S(=O)(=O)N3CCOCC3)cc2)n1.Cl [GSK1669917]
Given back: 2

Asked: Give the reported %Inh for this compound. Cn1ccc2ncnc(Oc3ccc(Nc4nc5ccccc5[nH]4)cc3)c21
Given back: 0

Asked: Identify measured %Inh corresponding to Cn1ccc2ncnc(Oc3ccc(NC(=O)Nc4ccccc4)cc3)c21
Given back: 100

Asked: // fetch %Inh given entry Cc1ccc(NC(=O)Nc2cc(C(C)(C)C)nn2-c2ccccc2)cc1 [GSK1014915]
Given back: 98.9

====

- Test system: MEK1
- Construct: gene MAP2K1
- measurement parameters: concentration: 1 μM, replicates: in singlicate; n = 1
For each of the compounds below, state its %Inh.
The answer is to be given in %; state only the numeric part.

Asked: Look up %Inh of COc1cc2nccc(Nc3ccc(NC(=O)c4ccc(C)cc4)c(O)c3)c2cc1OC.Cl and report it.
Given back: 8

Asked: Annotate the compound O=C(Nc1n[nH]c2nc(-c3nccs3)c(Br)cc12)C1CC1 with its measured %Inh.
Given back: 0

Asked: Fill in reported %Inh for this entry: COc1cccc(NC(=O)NC2CCN(c3ccnc(Nc4ccc(F)cc4)n3)C2)c1 (stereo not shown)
Given back: 31

Asked: Could you please provide reported %Inh for Cn1ccc2ncnc(Oc3cccc(C(=O)Nc4ccccc4)c3)c21 ? Thanks!
Given back: 1

====

- Tested on: JNK1
- Construct: gene MAPK8
- measurement parameters: concentration: 1 μM, replicates: in singlicate; n = 1
Record form. Attribute: %Inh. Fill in for each entry.
API: value field is a number in %; no unit string.

Asked: Please indicate %Inh recorded for COc1cc(Nc2nccc(N3CCC(NC(=O)Nc4cc(C)ccc4C)C3)n2)cc(OC)c1OC (stereo not shown) [GSK1379762]
Given back: 24

Asked: Consider the compound CS(=O)(=O)c1ccc(-c2nc3n(c2-c2ccncc2)CCC3)cc1 [SKF-105942] . State its measured %Inh.
Given back: 41

Asked: In one line, give reported %Inh of the entry Cc1cccc(-c2cc(Nc3ccncc3)c3ccccc3n2)n1 [GSK223675] .
Given back: 11

Asked: Tell me %Inh reported for Cc1cc(-c2ccc3c(c2)CC[C@@H](N[C@@H](C)c2ccccc2)C3)cnc1N.Cl [GW412617]
Given back: 36

Asked: Note down %Inh recorded for CC(C)(C)c1ccc(C(=O)Nc2cn3cc(Cl)ccc3n2)cc1
Given back: 0

Asked: Could you please provide reported %Inh for Fc1cc(Cl)ccc1Nc1ccnc2cc(-c3ccc(CN4CCCCC4)o3)ccc12 [GW560116] ? Thanks!
Given back: 0

Asked: For the compound Cc1c(O)cccc1Nc1ccnc2ccc(C(F)(F)F)cc12.Cl [GW466413] , give its reported %Inh.
Given back: 21

Asked: Give the value of %Inh reported for the following: Cn1ccc2ncnc(Oc3cccc(C(=O)Nc4ccccc4)c3)c21
Given back: 16

Asked: Let me know recorded %Inh for COC(=O)c1c(-c2ccccc2)c2cc(OC)ccc2c(=O)n1Cc1ccccc1 , thanks.
Given back: 66

Asked: # return recorded %Inh for entry Cc1cccc(-c2nc(Nc3ccc4[nH]ncc4c3)c3ccccc3n2)n1 [GW857175]
Given back: 36
